Each entry below lists one item and its recorded TGI value.
System: PC-3 prostate
Assay: NCI tumour cell line growth inhibition, 48 h
experimental readout: TGI

1) CCC(=O)Nc1ccc(N2C(=O)C(Cl)C2c2ccc(SC)cc2)cc1 (configuration not stated)	> 100 µM
2) C=C1C2C[C@@H]3O[C@H]4C[C@H]5O[C@@]6(C[C@@H]7O[C@]8(C[C@H](C)[C@@H]9O[C@@H]%10CC(CO)O[C@@H]%10C[C@@H]9O8)C[C@H](C)[C@@H]7O6)C[C@H]5O[C@H]4[C@H](C)[C@H]3OC(=O)C[C@H]3CC[C@@H]4OC5[C@H]6O[C@]7(CC[C@H]8CC(=C)[C@H](CC[C@@H](C[C@H]1C)O2)O8)CC6O[C@@H]5[C@@H](O7)[C@H]4O3 (some centres not stated)	> 1 µM

###

System: SK-OV-3 ovarian
Assay: NCI tumour cell line growth inhibition, 48 h
// TGI lookup, one value per entry
experimental readout: TGI

1. O=[N+]([O-])c1cc(-c2nc(-c3ccccc3)c(-c3ccccc3)[nH]2)c(O)c([N+](=O)[O-])c1	40.6 µM
2. N/C(=N\N=C\c1ccc2c(c1)OCCO2)NO	> 100 µM
3. COC(=O)c1ccccc1C1CN=NC12Cc1cc(C)ccc1C2=O (stereo unspecified)	> 100 µM
4. CSc1nc(SC)c2c(CO)c(Br)n(Cc3ccccc3)c2n1	37.6 µM
5. O=C1c2ccccc2S(=O)(=O)c2cc(-c3nn[nH]n3)ccc21	> 100 µM
6. O=C(O)C1CC(O)CN1 (stereo unspecified)	> 100 µM

###

Tested on: SK-MEL-2 melanoma
Assay: NCI tumour cell line growth inhibition, 48 h
The entries below come with measured TGI values attached.
experimental readout: TGI

1. Nn1c(Cc2ccc([N+](=O)[O-])cc2)n[nH]c1=O	> 100 µM
2. C=CCc1cccc2cc(C(=O)Nc3ccccn3)c(=N)oc12	> 100 µM
3. Cc1cc(C)cc(NC(N)=S)c1	> 100 µM

###

Test system: K-562 leukemia
Assay: NCI tumour cell line growth inhibition, 48 h
experimental readout: GI50

1) COc1cc(-c2nc(SCCC(C)C)nc(Nc3ccc(S(N)(=O)=O)cc3)c2C#N)cc(OC)c1OC	2730 nM
2) C=C1CC2(OC1=O)C(=O)Nc1ccccc12 (stereo unspecified)	1880 nM
3) Cc1cnc(C(=O)NNc2nc3sc4c(c3c(=O)n2C)C(C)CCC4)cn1 (stereo unspecified)	433 nM
4) OCC#Cc1ccccc1C#CCCCCCC#Cc1ccccc1C#CCO	22400 nM
5) CCCCCCCCCCCCC(O)[C@H]1CC[C@H](C(O)CCCCCC(=O)CCCCC2CC(C(C)=O)C(=O)O2)O1 (stereo partly specified)	1910 nM
6) O=C(OC[C@H]1O[C@H](OC(=O)c2cc(O)c(O)c(OC(=O)c3cc(O)c(O)c(O)c3)c2)[C@H](OC(=O)c2cc(O)c(O)c(OC(=O)c3cc(O)c(O)c(O)c3)c2)[C@@H](OC(=O)c2cc(O)c(O)c(OC(=O)c3cc(O)c(O)c(O)c3)c2)[C@@H]1OC(=O)c1cc(O)c(O)c(OC(=O)c2cc(O)c(O)c(O)c2)c1)c1cc(O)c(O)c(OC(=O)c2cc(O)c(O)c(O)c2)c1	9630 nM
7) Cc1cc(N2CCOCC2)cc2[nH]c(-c3c(NC[C@@H](O)c4cccc(Cl)c4)cc[nH]c3=O)nc12	2940 nM
8) Cc1ncc(C(=O)Nc2ccc(CN3CCN(C)CC3)c(C(F)(F)F)c2)cc1C#Cc1cnc(N)cc1C#N	1.67 nM
9) COc1cc2c(cc1OCCCC(=O)Nc1ccc3ccc4cccc5ccc1c3c45)N=C[C@@H]1CCCN1C2=O	190 nM
10) C=C1C(=O)O[C@H]2[C@H]1CC/C(Cn1cc(-c3ccccc3C(F)(F)F)nn1)=C\CC[C@@]1(C)O[C@@H]21	2400 nM
11) COc1ccc(-c2ccc(-c3ccc(C(=N)N)o3)o2)cc1	487 nM
